assay: NCI Yeast Anticancer Drug Screen. Data for the rad50 strain (AID 155);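 also: 0% = growth of vehicle-only cultures of the same strain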; details: S. cerevisiae rad50 strain growth inhibition; at 11.0 µM
This is part of a sample that, as a whole, favours compounds with a hit. Of some 79,000 tested, about 15% had one in any assay. Active and inactive are the calls of the source. Rule as the data show it: active = growth inhibition above about 70%; inactive = the rest.
Permitted responses: 1 (yes) (active), 0 (no) (inactive)

Consider the following illustrative entries.
Nc1ccn(C2OC(COP(=O)(O)O)C(O)C2O)c(=O)n1 (stereo unspecified)    0 (no)
COc1cc(C2c3cc4c(cc3OC(OC(C)=O)C2C)OCO4)cc(OC)c1OC (stereo unspecified)    0 (no)
Cc1ccc2c(c1)C1(SC(C)C(=O)N1c1ccc(Cl)cc1)C(=O)N2 (stereo unspecified)    0 (no)
CCN(CC)CCOc1cc(C)c2cc(Cc3ccccc3)ccc2n1    0 (no)
CC1CC(C)(C)CC(OCCN2CCCCC2)(c2ccccc2)C1 (stereo unspecified)    0 (no)
O=[N+]([O-])/C=C/c1cc(Cl)c(/C=C/[N+](=O)[O-])cc1Cl    1 (yes)
CN(CCN(C)Cc1ccccc1)Cc1ccccc1    0 (no)
Cc1ccc(Cl)cc1NC(=O)OCCN(C)C(=O)Nc1cc(Cl)ccc1C    0 (no)

Query block: What call does the record list for CCC(C)(C)c1ccc(Oc2cccc(C(=O)O)c2)cc1 ?
Result block: 0 (no)

Query block: What outcome does the record of this test show for S=c1sc2c(s1)SCCS2 ?
Result block: 0 (no)

Query block: Hi, sorry to bother you, what did the test record for CCCCc1ccc(-n2c(C)c(COC(=O)NC)c(COC(=O)NC)c2C)cc1 ?
Result block: 0 (no)

Query block: Name the outcome recorded for c1ccc2c(OCC3CO3)cccc2c1 (stereo unspecified) in the assay.
Result block: 0 (no)

Query block: Test call for this molecule, please: O=C1Nc2ccccc2/C1=C/c1ccccc1
Result block: 0 (no)

Query block: For this molecule, state the assay outcome: COc1cc([C@@H]2c3cc4c(cc3[C@@H](Nc3ccc(NC(=O)c5cc([N+](=O)[O-])cn5C)cc3)[C@H]3COC(=O)[C@H]23)OCO4)cc(OC)c1O
Result block: 1 (yes)

Query block: How was O=C(NNc1ccccc1)C(O)C(O)C(O)C(O)C(O)CO (stereo unspecified) classified in this test?
Result block: 0 (no)

Query block: // return assay outcome for O=C(/C=C\c1cccc(C(F)(F)F)c1)c1ccccc1
Result block: 0 (no)

Query block: // param item: CCOC(=O)/C(=C\c1ccc(C#N)cc1)C(C)=O ; yields the recorded call
Result block: 0 (no)

Query block: Answer briefly: the call reported for O=C(CSC(=S)N1CCCCC1)Nc1nc2c(s1)CCCC2 in this assay.
Result block: 0 (no)

Query block: So what was the verdict on CCCCC/C(=C(\C#N)C(=O)OCC)c1ccccc1 in this test?
Result block: 0 (no)

Query block: State the result this test recorded for CC(C)(C)[Si](C)(C)OCC1CCC(n2cnc3c(NC(=O)c4ccccc4)ncnc32)O1 (stereo unspecified) .
Result block: 0 (no)

Query block: Status in this test for Clc1ccc(NCNC2Nc3ccccc3N2)cc1Cl ?
Result block: 0 (no)

Query block: Recorded test call requested for CCOC1=C/C(=N\Nc2ccc([N+](=O)[O-])cc2)CCC1
Result block: 0 (no)

Query block: Answer briefly: the call reported for O=C(O)c1ccccc1/C=N/N=C1c2ccccc2-c2ccccc21 in this assay.
Result block: 0 (no)

Query block: Hi, sorry to bother you, what did the test record for O=C(/C=C/c1cc(Cl)cc(Cl)c1O)c1cccc(O)c1 ?
Result block: 0 (no)

Query block: // outcome(item) with item = COc1ccc(N=CN(C)C)c(C)c1
Result block: 0 (no)

Query block: Outcome? CCCCOC(=O)Nc1ccc(C)c(NC(=O)OCCCC)c1
Result block: 0 (no)

Query block: Hi, do you know how Cc1cc(C(C)(C)C)c(OCCCN2CCOCC2)c(C(C)(C)C)c1 came out in this test?
Result block: 0 (no)

Query block: For CC(C)C(C)/C=C\C(C)C1CCC2C3=CC=C4CC(O)CCC4(C)C3CCC21C (stereo unspecified) , which call appears in the assay record?
Result block: 0 (no)

Query block: Give the logged outcome of this assay for the following molecule: CN(C)c1ccc(C2CC(C)(O)Oc3cc4c(cc32)OCO4)cc1 (stereo unspecified)
Result block: 0 (no)

Query block: Tell me the assay call for COC(=O)/C=C(/CC(=O)OC)C(=O)OC please.
Result block: 0 (no)
